Listing of recorded pKd by entry.
ASSAYED SYSTEM: T1, human latent myostatin (human, UniProt O14793 25-266; O14793 267-375)
T1 construct: non-covalent complex of two propeptides and the mature homodimer; also called human myostatin latent form
T1 sequence 1: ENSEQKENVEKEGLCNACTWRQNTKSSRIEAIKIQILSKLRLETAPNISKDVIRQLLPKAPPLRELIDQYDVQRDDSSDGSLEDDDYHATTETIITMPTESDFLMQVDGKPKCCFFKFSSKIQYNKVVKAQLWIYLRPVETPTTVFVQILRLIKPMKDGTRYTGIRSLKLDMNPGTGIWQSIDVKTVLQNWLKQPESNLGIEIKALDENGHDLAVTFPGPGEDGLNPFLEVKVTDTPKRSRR
T1 sequence 2: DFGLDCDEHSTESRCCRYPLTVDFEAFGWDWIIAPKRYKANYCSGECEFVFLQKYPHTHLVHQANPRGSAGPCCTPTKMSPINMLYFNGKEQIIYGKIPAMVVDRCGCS
ASSAY NOTES: SPR 37C pH5.8; pH 5.8
Schema: pKd number; meaning minus log10 of the concentration expressed in molar units.

Check out these entries, answers already filled in.
BINDER	pKd
MS_M103205H1057-SG1/M103202L889-SK1 (antibody, human IgG1, kappa, V domains shown, also called MS1032LO12-SG1) VH: QVTLKESGPVLVKPTETLTLTCTVSGIDLSHTDISWVRQAPGKGLEWVGIISYAGSKYKASWAKGRLTISKDTSKNQVVLTMTNMDPVDTATYYCARGVPAYSHGGDLWGQGTLVTVSS VL: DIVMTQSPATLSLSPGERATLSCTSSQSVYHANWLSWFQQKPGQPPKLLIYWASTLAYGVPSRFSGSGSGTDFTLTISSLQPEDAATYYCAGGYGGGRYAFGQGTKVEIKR	7.07
MS_M103205H1046-SG1/M103202L889-SK1 (antibody, human IgG1, kappa, V domains shown, also called MS1032LO10-SG1) VH: QVTLKESGPVLVKPTETLTLTCTVSGIDLSHTDISWVRQAPGKGLEWVGIISYAGKTYYASWAKKRLTISKDTSKNQVVLTMTNMDPVDTATYYCARGVPAYSHGGDLWGQGTLVTVSS VL: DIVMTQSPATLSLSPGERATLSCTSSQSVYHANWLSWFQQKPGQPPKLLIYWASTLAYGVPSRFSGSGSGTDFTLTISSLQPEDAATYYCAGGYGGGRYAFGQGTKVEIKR	7.36
MS_M103245H795-SG1/M103202L1045-SK1 (antibody, human IgG1, kappa, V domains shown, also called MS1032LO21-SG1) VH: QVTLKESGPVLVKPTETLTLTCKVSGIDLSHDDISWVRQAPGKGLEWVSIISYAGSTYYASWAKGRLTISKDTSKNQVVLTMTNMDPVDTATYYCARGVPAYSHGGDLWGQGTLVTVSS VL: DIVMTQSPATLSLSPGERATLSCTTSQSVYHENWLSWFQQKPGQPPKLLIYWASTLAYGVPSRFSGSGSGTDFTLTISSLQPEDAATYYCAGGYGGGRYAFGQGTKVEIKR	7.28
MS_M103205H1047-SG1/M103202L889-SK1 (antibody, human IgG1, kappa, V domains shown, also called MS1032LO11-SG1) VH: QVTLKESGPVLVKPTETLTLTCTVSGIDLSHTDISWVRQAPGKGLEWVGIISYAGKKYYASWAKGRLTISKDTSKNQVVLTMTNMDPVDTATYYCARGVPAYSHGGDLWGQGTLVTVSS VL: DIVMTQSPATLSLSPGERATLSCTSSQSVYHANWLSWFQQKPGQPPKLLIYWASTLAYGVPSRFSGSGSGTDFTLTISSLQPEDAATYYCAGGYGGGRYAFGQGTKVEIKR	6.84
MS_M103245H1233-SG1/M103202L1045-SK1 (antibody, human IgG1, kappa, V domains shown, also called MS1032LO23-SG1) VH: QVTLKESGPVLVKPTETLTLTCKVSGIDLSHEDISWVRQAPGKGLEWVSIISYAGSTYYASWAKGRLTISKDTSKNQVVLTMTNMDPVDTATYYCARGVPAYSHGGDLWGQGTLVTVSS VL: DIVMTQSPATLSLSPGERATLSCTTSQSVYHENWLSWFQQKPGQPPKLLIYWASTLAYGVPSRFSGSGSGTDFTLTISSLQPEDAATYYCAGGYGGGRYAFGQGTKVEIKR	7.79

Exercise: What measured pKd goes with MS_M103205H1004-SG1/M103202L889-SK1 (antibody, human IgG1, kappa, V domains shown, also called MS1032LO07-SG1) VH: QVTLKESGPVLVKPTETLTLTCTVSGIDLSHDDISWVRQAPGKGLEWVGIISYAGSMYYASWAKGRLTISKDTSKNQVVLTMTNMDPVDTATYYCARGVPAYSHGGDKWGQGTLVTVSS VL: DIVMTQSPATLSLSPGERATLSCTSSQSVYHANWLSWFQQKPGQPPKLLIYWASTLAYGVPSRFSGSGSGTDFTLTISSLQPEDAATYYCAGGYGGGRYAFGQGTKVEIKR ?
Solution: 7.34

Taken from patent EP4755449A2.
